- Target under test: cell-surface ZIKV NS1 (Zika virus, strain ; stand-in …, UniProt A0A146CJG7)
- Experiment description: flow cytometry on cells
Result type: percentage of cell staining at 10 ug/ml (%)
Answer format: numeric, % implied, no suffix.

Ask: Look up percentage of cell staining at 10 ug/ml: mAb 3G2 (IgG) (antibody, V domains shown) VH: EVQLLESGGGLIQPGGSLRLSCAASGLTVSNNYMNWVRQAPGKGLEWVSIIYSSGSTYYADSVKGRFTISRDTRKNTLYLQMHSLRVEDTAVYYCARERGWLDYWGQGTLVTVSS VL: VIWMTQSPSSLSASVGDRVTITCRASQSVSSHLNWYQQKPGKAPKLLIYAVSSLQSGVPSRFSGGDSGTDFTLTIASLQPEDFATYYCQQTYTIPRTFGQGTKVEIK
Reply: 76

Ask: Look up percentage of cell staining at 10 ug/ml: mAb 14G5 (IgG) (antibody, V domains shown) VH: QVQLVQSGAEVKKPGESLKISCKGSGYSFTSYWIGWVRQMPGKGLEWMGIIYPGDSDTRYSPSFQGQVTMSADRSISTAYLQWSSLKASDTAMYYCARSNVDGSTDYWGQGTLVTVSS VL: SYELTQPPSVSVSPGQTARITCSGDALPKQYAFWYQQKPGQAPVLVIYKDSERPSGIPERFSGSSSGTTVTLTISGVQAEDEADYYCQSADSSDTYVPYVFGTGTKVTVL
Reply: 63

Ask: Look up percentage of cell staining at 10 ug/ml: mAb 2E11 (IgG) (antibody, V domains shown) VH: SVELIESGGGVVQPGRSLRLSCAASGFTFSNYAMHWVRQAPGKGLEWVAFISYDGSNKYYADSVKGRFTISRDNSKNTLSLQMNSLRAEDTALYYCARVFNGYEGDYWGQGTLVTVSS VL: LPVLTQPPSVSVSPGQTARITCSGDALPKKYAYWYQQKSGQAPVLVIYEDSKRPSGIPERFSGSSSGTMATLTISGAQVEDEADYYCYSTDSSGNLYVFGTGTKVTVL
Reply: 59

Ask: Look up percentage of cell staining at 10 ug/ml: mAb 4F10 (IgG) (antibody, V domains shown) VH: EVQLLESGPGLVKPSQTLSLTCTVSGGSISSGGYYWSWIRQHPGKGLEWIGYIYYSGSTYYNPSLKSRVAMSVDTSKNQFSLTLSSVTAADTAVYYCARAIDNFYDNSIWGQGTLVTVSS VL: DIQMTQSPSSLSASVGDRVTIACRASQSITNFLNWYQQKPGKAPKLLIYAVSNLQSGVPSRFSGSGSGTDFTLTISSVRPEDFATYFCQQSYSPPYTFGQGTKVDIK
Reply: 58
